Attribution: patent US20110212968A1

# reported pIC50; entries follow
molecular target: human orexin-1 receptor (Homo sapiens, UniProt O43613); construct: expressed in transfected cells; host or cells: CHO (Chinese hamster ovary) cells, kept under G418 selection; assay: Intracellular calcium measurement (FLIPR Tetra), orexin receptor antagonistic activity, OX1; assay type: cell-based; conditions: CHO cells expressing human orexin-1 receptor, 3 nM orexin-A, conditions B
Sequence (O43613 whole entry): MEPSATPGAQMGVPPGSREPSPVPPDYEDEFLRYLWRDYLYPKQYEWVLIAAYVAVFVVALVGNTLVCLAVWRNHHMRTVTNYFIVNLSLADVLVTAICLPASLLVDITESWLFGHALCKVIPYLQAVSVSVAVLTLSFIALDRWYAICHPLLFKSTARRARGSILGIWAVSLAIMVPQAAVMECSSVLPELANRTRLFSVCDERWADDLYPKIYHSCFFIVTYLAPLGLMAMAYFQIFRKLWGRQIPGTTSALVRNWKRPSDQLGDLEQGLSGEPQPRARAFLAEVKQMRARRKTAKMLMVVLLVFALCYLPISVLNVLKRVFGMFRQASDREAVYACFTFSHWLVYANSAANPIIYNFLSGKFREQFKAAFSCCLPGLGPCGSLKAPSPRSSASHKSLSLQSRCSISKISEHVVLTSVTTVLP
Reminder that pIC50 is minus the log10 of a molar concentration.

- Cc1cccc(-c2sc(N)nc2C(=O)N(CCc2c[nH]c3cc(Cl)ccc23)CC2CC2)c1 [Example 224]: 8.10

Exercise: Return reported pIC50; argument: COc1ccc(CCN(CC(C)C)C(=O)c2nc(N)sc2-c2cccc(C)c2)cc1OC [Example 113]
Solution: 6.48

Exercise: // pIC50 lookup, key: COc1ccc(CCN(CC2CC2)C(=O)c2cccnc2-c2ccc(C)cc2)cc1OC [Example 395]
Solution: 6.54

Exercise: I have this molecule here, CCCN(CCc1ccc(OC)c(OC)c1)C(=O)c1nc(C)sc1-c1ccc(C)c(C)c1 [Example 111] , and I need its recorded pIC50.
Solution: 7.74
